Data credit: PubChem BioAssay (NCI)

Test: NCI Yeast Anticancer Drug Screen. Data for the mlh1 rad18 strain (AID 175)
Settings: S. cerevisiae mlh1 rad18 strain growth inhibition; at 50.0 µM (retest, dose inferred, filed as 5.0); stronger effect = higher value
This is part of a sample that, as a whole, favours compounds with a hit. Of some 79,000 tested, about 15% had one in any assay.
Kindly supply the reported growth inhibition values for the records listed here.
Numbers only, in %.

| compound | experimental.value |
| --- | --- |
| CC(Br)CN(CC(C)Br)c1ccc2c(c1)Cc1ccccc1-2 (stereo unspecified) | 82 |

Please state growth inhibition for every compound in the list that follows.
1. ClCCCCCl
2. CC1=C[n+]2cc(C)ccc2Sc2c1ccc1ccccc21
3. O=C(CCl)Nc1cccc(Cl)c1
4. O=[N+]([O-])c1cc(S(=O)(=O)F)ccc1Cl
5. c1ccc2c3ccn4cc5c(cc4c-3nc2c1)CCCC5

[-1, 30, 78, 54, 98]

* * *

Experiment: NCI Yeast Anticancer Drug Screen. Data for the rad50 strain (AID 155);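 note: 0% = growth of vehicle-only cultures of the same strain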
Conditions: S. cerevisiae rad50 strain growth inhibition; at 33.0 µM; stronger effect = higher value
This is part of a sample that, as a whole, favours compounds with a hit. Of some 79,000 tested, about 15% had one in any assay.
Kindly state growth inhibition for each of the entries shown.
Give bare numbers, in %.

| molecule | units.label | growth inhibition |
| --- | --- | --- |
| COC(=O)c1c(C)ccc2c(O)c3c(cc12)C(=O)c1c2c(cc(O)c1C3=O)C1(C)OC(C)(O2)C(O)C(N(C)C)C1O (configuration not stated) | % | 92 |
| CCN(CCCl)c1cc(CN(C)C)cc(NC(=O)c2ccc(C(=O)Nc3cc(CN(C)C)cc(N(CC)CCCl)c3)cc2)c1 | % | 58 |
| Cc1ccc(P(c2ccc(C)cc2)c2ccc(C)cc2)cc1 | % | 33 |
| O=C(/C=C(\c1ccccc1)N1CC1)c1ccccc1 | % | 33 |
| CC[C@@]1(O)C(=O)OCc2c1cc1n(c2=O)Cc2cc3ccccc3nc2-1 | % | 96 |

Please state growth inhibition for every molecule in the list that follows.
1. CCOC(=O)C1=C(C(=O)OCC)C2(c3ccccc3)N(O1)c1ccccc1C2(C)C (configuration not stated)
2. CC(=O)O/C(=C1\C[C@H]2[C@@H]3CC=C4C[C@@H](OC(C)=O)CC[C@]4(C)[C@H]3CC[C@]2(C)C1=O)C(F)(F)F

[-1, 2]

Please look at the items below and tell me growth inhibition for each one, in order.
1. CC1CN=C(Nc2ccccc2)S1 (configuration not stated)
2. C[CH2][Sn]1([CH2]C)[O]C2C(O)OC(CO)C(O)C2[O]1 (configuration not stated)
3. COc1ccc(/C=C(/C)[N+](=O)[O-])cc1
4. CCCCCCCCCC[Se]C#N
5. Br[Se]c1ccccn1

[3, 4, 94, 52, 98]

* * *

Assay: NCI Yeast Anticancer Drug Screen. Data for the mec2-1 strain (AID 157)
Details: S. cerevisiae mec2-1 strain, at 50.0 µM, stronger effect = higher value
This is part of a sample that, as a whole, favours compounds with a hit. Of some 79,000 tested, about 15% had one in any assay. Calls of active or inactive are those of the source. Cut-off read from the data, not from the text of the source: active = growth inhibition above about 70%; inactive = the rest.
readout.type: growth inhibition

| compound | experimental.value |
| --- | --- |
| N#CN(Cc1ccccc1)C(c1ccccc1)(c1ccccc1)c1ccccc1.[Cl][Sn]([c]1ccccc1)([c]1ccccc1)[c]1ccccc1 | 98.3% (active) |
| CCC[CH2][Sn]([CH2]CCC)([O]C(=O)C(N)CSC)[O]C(=O)C(N)CSC (centres undefined) | 89.3% (active) |
| CC1(C)N([O-])[N+](=O)C1(C)Br (centres undefined) | -10.3% (inactive) |
| [Cl][Hg][Cl] | 93.3% (active) |
| CC(=O)OC1CCC2(C)C3=C(CCC2C1(C)C)C1(C)CCC(C(C)CCC2NC2(C)C)C1(C)CC3 (centres undefined) | 2.5% (inactive) |
| C[As](c1ccc(Br)cc1)c1ccc(Br)cc1 | 25.8% (inactive) |

Please report growth inhibition for every entry that follows.
1. C[CH2][Sn]1([CH2]C)[c]2ccccc2Oc2cccc[c]21
2. ClCCN(CCCl)CCN1c2ccccc2Sc2ccc3ccccc3c21
3. C(=C/P(c1ccccc1)c1ccccc1)/P(c1ccccc1)c1ccccc1.C(=CP(c1ccccc1)c1ccccc1)P(c1ccccc1)c1ccccc1.[Pt]

["99.4% (active)", "40% (inactive)", "90% (active)"]

Look at each compound and report its growth inhibition.
1. CSc1ncc(COP(=S)(OCc2cnc(SC)nc2N)OCc2cnc(SC)nc2N)c(N)n1
2. CC(C)C(=O)CP(=O)(O)O
3. CC1(C)C(=O)C=CC2(C)C1CC(O)C1(C)C2CCC2(C)C(c3ccoc3)OC(=O)C3OC321 (centres undefined)
4. COC12C(COC(C)=O)C3=C(C(=O)C(C)=C(N4CCCCC4)C3=O)N1CC1NC12 (centres undefined)
5. C=CCN(CC=C)CC(C(C)=O)C(c1ccccc1)c1c(O)c2ccccc2oc1=O (centres undefined)

-5.35% (inactive)
-22.6% (inactive)
86.5% (active)
91.7% (active)
74.2% (active)

* * *

Assay: NCI Yeast Anticancer Drug Screen. Data for the rad50 strain (AID 155);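 note: 0% = growth of vehicle-only cultures of the same strain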
Conditions: S. cerevisiae rad50 strain growth inhibition; at 11.0 µM
Method: Growth inhibition of yeast strains with defined genetic alterations is measured as a screen for potential anti-cancer activity. Selected strains with alterations in DNA damage repair or cell cycle control were exposed to compounds and growth inhibition was measured relative to vehicle treated controls. The strain used in this assay is rad50
This is part of a sample that, as a whole, favours compounds with a hit. Of some 79,000 tested, about 15% had one in any assay. Activity calls are given as the source filed them. Rule as the data show it: active = growth inhibition above about 70%; inactive = the rest.
The reply should name one outcome from active, inactive

| molecule | assigned.label |
| --- | --- |
| CCOC(=O)C1=C(C(=O)OCC)C2(c3ccccc3)N(O1)c1ccccc1C2(C)C (stereo not drawn) | inactive |
| O=P(CCCCP(=O)(c1ccccc1)c1ccccc1)(c1ccccc1)c1ccccc1.[Cl][Sn]([Cl])([c]1ccccc1)[c]1ccccc1 | active |

Give the logged outcome of this assay for the following molecule: Oc1ccc(Cl)cc1Cc1ccccc1
inactive

Note, next up: C[N+](CCCl)(CCCl)Cc1cccc2cccc([N+](=O)[O-])c12
inactive

Query CCC1(O)C(=O)OCc2c1cc1n(c2=O)Cc2cc3ccccc3nc2-1 (stereo not drawn) next
active

Would you kindly repeat that for OC(c1ccc(Br)cc1)C(Cl)(Cl)Cl (stereo not drawn) ?
inactive

Try Cc1ccc2nc3sc(=O)sc3nc2c1 next.
active

Can you handle O=[N+]([O-])O.[NH-]C1CCCCC1[NH-].[NH-]C1CCCCC1[NH-].[NH-]C1CCCCC1[NH-].[OH-].[OH-].[OH-].[Pt+4].[Pt+4].[Pt+4] (stereo not drawn) next?
inactive

* * *

What growth inhibition was measured for each of the following?
Assay: NCI Yeast Anticancer Drug Screen. Data for the mlh1 rad18 strain (AID 175)
Conditions: S. cerevisiae mlh1 rad18 strain growth inhibition; at 5.0 µM (retest, dose inferred, filed as 0.5); stronger effect = higher value
About 79,000 compounds went through this panel and 15% of them were active in at least one assay; those are over-represented in the sample as a whole.
Give bare numbers, in %.

Below are worked cases with known answers.
| compound | units.label | growth inhibition |
| --- | --- | --- |
| O=C1c2ccccc2[Se](=O)N1c1ccccc1 (centres undefined) | % | 83 |
| O=[N+]([O-])c1ccc(-n2nc3ccc4c(no[n+]4[O-])c3[n+]2[O-])c([N+](=O)[O-])c1 | % | 28 |

Please give growth inhibition for each item listed below.
1. C1CC[N-]CC1.C1CC[N-]CC1.N#CO.[Ag]
2. OC(c1ccc(Br)cc1)C(Cl)(Cl)Cl (centres undefined)
3. [Cl][Pt+2][Cl].[NH-]C(c1ccccc1)C([NH-])c1ccccc1 (centres undefined)
4. Nc1c(Br)cc(Br)c2c1C(=O)c1ccccc1C2=O
5. CN(C)CCCNc1ccnc2c(COC(=O)N(CCCl)CCCl)ccc([N+](=O)[O-])c12

1: 99; 2: 62; 3: -6; 4: 9; 5: 22

# map each compound to its growth inhibition
1. Cc1ccc(C(=O)OC(C(=O)O)C(OC(=O)c2ccc(C)cc2)C(=O)O)cc1 (centres undefined) (tested in a mixture with another compound)
2. O=C(O)c1cc[c]([Hg])cc1

1: 19; 2: 1

* * *

Test: NCI Yeast Anticancer Drug Screen. Data for the rad50 strain (AID 155);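 note: 0% = growth of vehicle-only cultures of the same strain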
Conditions: S. cerevisiae rad50 strain growth inhibition; at 5.0 µM (retest, dose inferred, filed as 0.5)
This is part of a sample that, as a whole, favours compounds with a hit. Of some 79,000 tested, about 15% had one in any assay. The source made the active and inactive calls. No stated cut-off is given here; in the data, active means growth inhibition above about 70%; inactive means the rest.
Parameter call: string, one of active, inactive

The examples below pair each entry with its known result.
| molecule | assigned.label |
| --- | --- |
| Nc1nc(-c2ccccc2)c(-c2ccccc2)[se]1 | inactive |
| [Cl][Sn]1([c]2ccccc2)[O]CCNCC[O]1 | inactive |
| O=C(O)c1cc([N+](=O)[O-])c(Cl)c([N+](=O)[O-])c1Cl | active |
| O=[N+]([O-])c1ccccc1 | inactive |
| Sc1ccc(Cl)cc1 | inactive |

Which outcome was assigned to O=[N+]([O-])C(Br)(Br)CCC(Br)(Br)[N+](=O)[O-] in this test?
active

Next record, please: CCC[CH2][Sn]([Cl])([Cl])[CH2]CCC
active

And then C=CCCCCCCCCC(=O)O (tested in a mixture with another compound) , what is it?
inactive

# repeat for COC1=[C]([Hg][Br])C(OC)OC1OC (stereo unspecified)
active

Please do the same for O=C(OCc1ccccc1)C(C(Cl)c1ccccc1)N(Cc1ccccc1)Cc1ccccc1 (stereo unspecified) as well.
inactive

What about this molecule? C/C(=N\Nc1ccccn1)C1CC[N-]C2C(O)CCCC12.C/C(=N\Nc1ccccn1)C1CC[N-]C2C(O)CCCC12.[Cu+2] (stereo unspecified)
active

Follow-up item: C[N+](C)(C)CC1CCC(C[N+](C)(C)C)C1=O (stereo unspecified)
inactive

Also CC(C)[O-].CC(C)[O-].[O-]c1cccc2cccnc12.[O-]c1cccc2cccnc12.[Ti+4] ?
inactive

Likewise for Cc1ccc2c(c1)SP(=S)(c1ccccc1)N2 (stereo unspecified) ?
inactive

Check Nc1cc(Cl)ccc1C(=O)c1ccccc1Cl too.
inactive

Check CC(C)NCC(O)c1ccc(O)c(O)c1.[Pt].c1ccc([PH+](c2ccccc2)c2ccccc2)cc1.c1ccc([PH+](c2ccccc2)c2ccccc2)cc1 too.
inactive

What would you report for CC1=CCC2(C)C3CCC4(C)C(O)CCC4C3CCC2(C)C1 (stereo unspecified) ?
inactive

Same lookup for c1ccc2c(c1)c1cccc3c4c5ccccc5c5cccc(c2c13)c54 , please.
inactive

Same read-out for CCCCCCCCCCCCC(=O)[O][Hg][c]1ccccc1 ?
active
